# system: FAAH in rat brain membranes (Rattus norvegicus, UniProt P97612)
# Sequence (P97612 whole entry): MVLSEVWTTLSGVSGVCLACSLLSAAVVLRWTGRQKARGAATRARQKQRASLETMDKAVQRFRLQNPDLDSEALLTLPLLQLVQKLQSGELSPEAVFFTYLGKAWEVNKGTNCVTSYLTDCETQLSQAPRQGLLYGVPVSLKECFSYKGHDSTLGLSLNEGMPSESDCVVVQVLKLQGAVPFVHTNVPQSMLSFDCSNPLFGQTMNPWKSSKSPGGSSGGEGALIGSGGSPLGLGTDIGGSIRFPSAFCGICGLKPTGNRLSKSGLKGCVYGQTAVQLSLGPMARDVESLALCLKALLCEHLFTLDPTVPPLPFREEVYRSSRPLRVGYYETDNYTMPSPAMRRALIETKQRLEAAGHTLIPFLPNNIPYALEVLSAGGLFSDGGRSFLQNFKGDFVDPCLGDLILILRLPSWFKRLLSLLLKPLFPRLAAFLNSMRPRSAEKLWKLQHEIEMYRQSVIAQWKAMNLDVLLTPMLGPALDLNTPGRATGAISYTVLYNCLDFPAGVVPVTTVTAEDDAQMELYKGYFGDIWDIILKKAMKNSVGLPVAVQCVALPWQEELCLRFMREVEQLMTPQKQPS
# assay.details: FAAH assay, [14C]-AEA hydrolysis in rat brain membranes
result.type: IC50

Asked: Which IC50 is listed for CN(CCCOc1ccc2ccc(=O)oc2c1)Cc1cccc(OCC(=O)NC2CCCCC2)c1 ?
Given back: > 1000 µM

Asked: What value of IC50 has been reported for the following compound? CCCCCCCNC(=O)COc1cccc(CN(C)CCCOc2ccc3ccc(=O)oc3c2)c1
Given back: > 1000 µM

Asked: I am curious: what IC50 value has been reported for CN(CCCOc1ccc2ccc(=O)oc2c1)Cc1cccc(OCC(=O)NC2CCCC2)c1 ?
Given back: > 1000 µM
